// provenance: patent US20240383845A1

# Assay Details: Refractive index (abbe refractometer)
# Type: physicochemical
# Applied Conditions: 25° C., 589 nm; methoquinone/DMI solutions, value at 100% by mass by extrapolation
Assay Metric: Refractive index

C=C(C)C(=O)Sc1ccc2cc(SC(=O)C(=C)C)ccc2c1	1.651
C=CC(=O)Sc1cccc2c(SC(=O)C=C)cccc12	1.646
C=CSc1cccc2c(SC=C)cccc12	1.685
C=CCSc1cccc2c(SCC=C)cccc12	1.653
C=C(C)C(=O)Sc1ccc2c(SC(=O)C(=C)C)cccc2c1	1.647
C=C(C)C(=O)Sc1cccc2c(SC(=O)C(=C)C)cccc12	1.638
C=C(C)C(=O)Sc1ccc2ccc(SC(=O)C(=C)C)cc2c1	1.649
C=CC(=O)Sc1ccc2c(SC(=O)C=C)cccc2c1	1.667

###

# Assay Details: Dissolubility or compatibility (maximum dissolved concentration, HPLC)
# Format: physicochemical
# Applied Conditions: 25° C., propylene glycol monomethyl ether acetate
Tag: fulfilled if measured Dissolubility, PGMEA is not below 3 % by mass, not fulfilled if it is.

Sc1cccc2c(S)cccc12	fulfilled
Sc1ccc2ccc(S)cc2c1	not fulfilled
CSc1cccc2c(SC)cccc12	not fulfilled
CSc1ccc2c(SC)cccc2c1	fulfilled
c1cc(SCC2CO2)c2cccc(SCC3CO3)c2c1 (centres unmarked)	fulfilled
C=C(C)C(=O)Sc1ccc2ccc(SC(=O)C(=C)C)cc2c1	not fulfilled
C=CC(=O)Sc1ccc2c(SC(=O)C=C)cccc2c1	fulfilled
C=CSc1cccc2c(SC=C)cccc12	fulfilled
C=CCSc1cccc2c(SCC=C)cccc12	fulfilled

###

Dissolubility, PGMEA overview
# Assay Details: Dissolubility or compatibility (maximum dissolved concentration, HPLC)
# Assay type: physicochemical
# Applied Conditions: 25° C., propylene glycol monomethyl ether acetate
Assay Metric: Dissolubility, PGMEA (% by mass)

Sc1ccc2cc(S)ccc2c1	0.73
OCCSc1cccc2c(SCCO)cccc12 [Example 15DHENDSH, 1,5-bis(2-hydroxyethylthio)naphthalene]	3.60
O=C(O)CSc1ccc2c(SCC(=O)O)cccc2c1	0.98

###

# Assay Details: Dissolubility or compatibility (maximum dissolved concentration, HPLC)
# Type: physicochemical
# Applied Conditions: 25° C., tetrahydrofuran
Tag: true if measured Dissolubility, THF is not below 10 % by mass, false if it is.

C=C(C)C(=O)Sc1ccc2c(SC(=O)C(=C)C)cccc2c1	true
C=C(C)C(=O)Sc1cccc2c(SC(=O)C(=C)C)cccc12	true
Sc1ccc2ccc(S)cc2c1	false
C=C(C)C(=O)Sc1ccc2cc(SC(=O)C(=C)C)ccc2c1	false
C=C(C)C(=O)Sc1ccc2ccc(SC(=O)C(=C)C)cc2c1	true
O=C(O)CSc1ccc2c(SCC(=O)O)cccc2c1	true
O=C(O)CSc1cccc2c(SCC(=O)O)cccc12	false
Sc1ccc2cc(S)ccc2c1	false
Sc1cccc2c(S)cccc12	true

###

melting point overview
Assay Metric: melting point

CSc1cccc2c(SC)cccc12	149 to 151 °C
Sc1ccc2ccc(S)cc2c1	186 to 188 °C
C=CC(=O)Sc1cccc2c(SC(=O)C=C)cccc12	156 to 158 °C
c1cc(SCC2CO2)c2cccc(SCC3CO3)c2c1 (stereo not shown)	50 to 53 °C
O=C(O)CSc1ccc2c(SCC(=O)O)cccc2c1	176 to 178 °C
C=CSc1cccc2c(SC=C)cccc12	50 to 52 °C
OCCSc1cccc2c(SCCO)cccc12 [Example 15DHENDSH, 1,5-bis(2-hydroxyethylthio)naphthalene]	84 to 86 °C
